Target: Lactoylglutathione lyase (Homo sapiens, UniProt Q04760)
Sequence (Q04760 whole entry): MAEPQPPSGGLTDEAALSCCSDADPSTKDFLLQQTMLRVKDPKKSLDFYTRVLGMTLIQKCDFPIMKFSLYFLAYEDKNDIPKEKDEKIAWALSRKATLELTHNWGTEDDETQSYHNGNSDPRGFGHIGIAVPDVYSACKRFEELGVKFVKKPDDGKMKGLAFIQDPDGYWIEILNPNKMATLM
Experiment: Inhibition of human recombinant His-tagged glyoxalase 1 expressed in Escherichia coli BL21 (DE3) preincubated for 20 mins by Dixon plot analysis
pKi: −log10 of the molar value.
Measurement Type: pKi

The cases that follow already have their pKi on record.
COc1ccc(/C=C/C(=O)/C=C(O)/C=C/c2ccc(O)cc2)cc1OC    4.54
COc1ccc2c(c1)c(CC(=O)O)c(C)n2C(=O)c1ccc(Cl)cc1 [INDOMETHACIN]    4.62
CCOC(=O)/C(=C\c1ccc([N+](=O)[O-])cc1)C(C)=O    3.80
O=C(/C=C(O)/C=C/c1ccc(F)cc1)/C=C/c1ccc(F)cc1    5.34

[P] CC(=O)C(=Cc1cccc([N+](=O)[O-])c1)C(C)=O
[Q] COc1cc(/C=C/C(=O)C(=Cc2ccc(F)cc2)C(=O)/C=C/c2ccc(O)c(OC)c2)ccc1O
[R] CCOC(=O)/C=C/c1ccc(O)c(OC)c1 [ETHYL FERULATE]
Q. // sort entries: pKi, high to low List the labels according to the requested ordering.
A. Q, P, R
(Q: 5.49, P: 4.04, R: 3.41)

[I] COc1cc(/C=C/C(=O)C(=Cc2cccc(F)c2)C(=O)/C=C/c2ccc(O)c(OC)c2)ccc1O
[II] O=C(O)C(=Cc1cccc([N+](=O)[O-])c1)C(=O)O
Q. Between I and II , whose recorded pKi is greater? Answer = label.
A. I

Hey, just so you know, these numbers are from ChEMBL document CHEMBL1667824.
